Source of measurements: the supplement of paper PMC11417369

# System: PfHDP1 homeodomain (GST-tagged)
# Experiment Summary: gcPBM binding intensity (ln(normalized median fluorescence intensity)); higher = stronger DNA binding
Whole data set: some 25,000 sequences, median “ln(normalized median fluorescence intensity)” near 6.7, cut for the highest 2% near 10. The sample as a whole holds a higher share of the highest values than the screen did.
Please enter true (1) where gcPBM binding intensity (ln) is greater than or equal to 10, and false (0) where it is lower.

>>> assigned_label("TACTTTTTAGGAAAGTGTACAAGCATATAAGGAATA [XGTACX_site2834]")
"false (0)"
>>> assigned_label("AATATAAATAATTATACACACTTAATATATATATAC [CACACA_site5533]")
"false (0)"
>>> assigned_label("AATATAATATAATGCACACATAAAAAAAAAAAAATC [CACACA_site1303]")
"true (1)"
>>> assigned_label("AATCTAATATAATGCACACATAAAAAAAAATCAAAC [CACACA_site3633]")
"true (1)"
>>> assigned_label("TTTGAAATAAATAATGCACACTCTACATATATACGT [CACACA_site2244]")
"true (1)"
>>> assigned_label("TATATTTTAATTTGAAGTACTAATATTTATTTATAT [XGTACX_site7458]")
"false (0)"
>>> assigned_label("TTTTTTTTGTTCATTGTGCACATTGCTTGCATGGAA [GTGCAC_site9693]")
"true (1)"
>>> assigned_label("AATATAATATAATGCACACATAAAAAAAAAATCAAA [CACACA_site122]")
"true (1)"

====

# System: PfHDP1 homeodomain (GST-tagged)
# Experiment Summary: gcPBM binding intensity (ln(normalized median fluorescence intensity)); higher = stronger DNA binding
The full ranking holds about 25,000 sequences; the median of “ln(normalized median fluorescence intensity)” is about 6.7, and the highest 2% start at about 10. For the sample, the highest values were picked, then their nearest neighbours and some sequences at random.
Recorded gcPBM binding intensity (ln) by entry
Measured Metric: gcPBM binding intensity (ln)

>>> result("ATACATAAAATTAAAACACACATTTTATTAAATACG [CACACA_site2167]")
6.44
>>> result("CTATATTATTTTTCTTGTACGTAGGAAATATAGCTA [XGTACX_site6176]")
6.45
>>> result("AATCATATTAGTATGGTGCAACATATATAAATATAT")
11
>>> result("CATATGTATATGACTACACACAAGGGTGTACCTATA [CACACA_site6670]")
6.34
>>> result("TTAATATGTTTAACCATTTTACATAAATTGATTTGT [CACACA_negctrl_site1100]")
6.3
>>> result("GTAAAGGCTATATATGTGCACATTTTTTTTTTTTTT [GTGCAC_site9925]")
10.9
>>> result("TTTGTATTACGTTTGTGTACATATACAATGTGTTTT [XGTACX_site7708]")
6.38
>>> result("CAATATATTATATGGGTGCAAACCACATATAAATAA")
8.55
>>> result("TATATATATATATATGTGCACATTTATTGCCTTTGC")
10.6
>>> result("ATAATAAAATAAATCACACATAATATAATGTAATAT [CACACA_site6144]")
6.49
>>> result("CTTTATATATATTGCGTGCACATTTTTTTTTTTTTT")
9.4
>>> result("TATATGTAATATTATACATGCATACATAATATATAT [TGCATGCA_site558]")
6.52
>>> result("ATTTTTATATAATGAACACACATATTATATCATTTA [CACACA_site1572]")
6.51
>>> result("TTAGTAAATACATTTGCACACATTATTTTTTAACAT [CACACA_site5448]")
10.7
>>> result("TATTTAAAAATATATACACACATTTTATATTATTAT [CACACA_site781]")
6.32
>>> result("AATTTAATATAATGCACACATAAAACAAAAACAAAA [CACACA_site529]")
10.5
>>> result("ATACATATATATGTGTGTACATATGTGTATACATTT [XGTACX_site6544]")
6.84
>>> result("GGAACTTATTTTTATACACACATATGTGCATATTAT [CACACA_site629]")
10.8
>>> result("TTATATTTATAAAATTGTATACCCCTTCTAACTTTC [CACACA_negctrl_site250]")
6.7
>>> result("TTTTTTTTTTTCAATAGTACTTTCCATTTACATATA [XGTACX_site3889]")
6.32
>>> result("AAAATTTAATATAATGCACACATAAAACAAAAACAA [CACACA_site8071]")
9.14
>>> result("TTTTTTTTCTATGTGGTGCACATTATTTTTTTTTTT")
9.27
>>> result("ATACCATATAATTATGTGAGAAAATATAATATTCAT [CACACA_negctrl_site310]")
6.55
>>> result("AGTATAAATAAATCATAAACATATATATATATATAT [GTGCAC_negctrl_site356]")
9.35
>>> result("AATCATATTAGTATGGTGCAATATATATATAAATAT [GTGCAC_site9800]")
10.5
>>> result("TTTCACATATATATGGTGCATATTTTATGTGTAAAT [GTGCAC_site9937]")
9.91
>>> result("ATTATCAATATGAAGGTGCATTTAAATAATATTTAC")
9.62
>>> result("TTTTGTTTATGTGTGCATTATATTATATTTTTTATT [TGCATGCA_negctrl_site146]")
10.2
>>> result("ATTTATATTTAATATACACACATTATTTTTTTATAT [CACACA_site574]")
6.86
>>> result("TACAATTTAAAACACACACACAATAATACATATATA [CACACA_site1251]")
6.89
>>> result("AATTTAATATAATGCACACATAAAAAAAAATTCAAA [CACACA_site2062]")
10.5
>>> result("AAAATTTAATATAATGCACACATAAAAAAAAAATCA [CACACA_site7882]")
10.7
>>> result("GTAGACTGAAACCACACACACATATATATATATATT [CACACA_site605]")
6.93
>>> result("AAAGAAAGAAAGAAAAGTACTTAAACTTTTAAAAAT [XGTACX_site8531]")
6.03
>>> result("CATGAATATTTTAATGTGCACATTTATCATTATATG")
10.6
>>> result("TATATTATATATATATGTACATATGGCAAAACATTA [XGTACX_site7958]")
7.12
>>> result("AATGCTATCATTAATGCACACATTTAAACTTAATAT [CACACA_site5878]")
10.6
>>> result("TATAATAATAATGATAGTACGTATGAGTTCAAGAAA [XGTACX_site4918]")
6.34
>>> result("AAAAAAAAAAAAACTAGTACATATATATAGTATGAA [XGTACX_site6279]")
6.33
>>> result("AATTTAATATAATGCACACATAAAAAAAAAATCAAA [CACACA_site1]")
9.95
